Source of measurements: the supplement of paper PMC11246515

Procedure summary: total protein half-life in vivo (active degradation + dilution); higher = more stable protein
Measurement context: wild type E. coli NCM3722; growth: N-lim chemostat; doubling time 12 h
Measurement label: total protein half-life in vivo (h)
One number for each entry, in h.

Q: Bench note: what total protein half-life in vivo did `MKRNLLSSAIIVAIMSLGLTGCDDKKAETETLPPANSQPAAPAPEAKPTEAPVAKAEAKPETPAQPVVDEQAVFDEKMDVYIKCYNKLQIPVQRSLARYADWLKDFKQGPTGEERTVYGIYGISESNLAECEKGVKSAVALTPALQPIDGVAVSYIDAAVALGNTINEMDKYYTQENYKDDAFAKGKTLHQTFLKNLEAFEPVAESYHAAIQEINDKRQLAELKNIEEREGKTFHYYSLAVMISAKQINNLISQDKFDAEAAMKKVSELETLVAQAKEADKGGMNFSFINSAGQYQLEAKKYVRRIRDKVPYSDWDKEQLQDANSSWMVEDSFPRALREYNEMVDDYNSLR` show?
Result: 10.5
